Tested on: Klebsiella pneumoniae
Assay: Antibacterial activity against Klebsiella pneumoniae ATCC 10031 after 24 hrs by broth microdilution method
Assay type: functional
Conditions: ATCC 10031, 24 h
Observed Property: MIC

In the examples that follow, each entry is paired with its recorded MIC.
>>> df
                                   molecule  observed_property      result
0  CC(C)c1csc(-c2n[nH]c(=S)n2NC(=O)c2ccc(O)cc2)n1                MIC  31.2 µg/mL
1  CC(C)c1csc(-c2nnc3n2NC(c2ccc(F)cc2F)S3)n1 (stereo not given)                MIC  31.2 µg/mL
2  COc1ccc(C2Nn3c(nnc3-c3nc(C(C)C)cs3)S2)cc1 (stereo not given)                MIC   250 µg/mL
3  CC(C)c1csc(-c2nnc3n2N=C(c2ccc([N+](=O)[O-])cc2)CS3)n1                MIC  31.2 µg/mL
4  Cc1ccc(C2=Nn3c(nnc3-c3nc(C(C)C)cs3)SC2)cc1                MIC     8 µg/mL
5  COc1ccc(C(=O)Nn2c(-c3nc(C(C)C)cs3)n[nH]c2=S)cc1                MIC    16 µg/mL
6  CC(C)c1csc(-c2nnc3n2N=C(c2ccc(O)cc2)CS3)n1                MIC    16 µg/mL
7  CC(C)c1csc(-c2nn(CN3CCN(C)CC3)c(=S)n2/N=C/c2ccc(N(C)C)cc2)n1                MIC     4 µg/mL

Record request: MIC value, item CC(C)c1csc(-c2nn(CN3CCOCC3)c(=S)n2/N=C/c2ccccc2Cl)n1 16 µg/mL

Record request: MIC value, item CC(C)c1csc(-c2nnc3n2N=C(c2ccc(Cl)cc2)CS3)n1 16 µg/mL
